Target: IKZF1 (Homo sapiens, UniProt Q13422+Q96SW2)
Construct: expressed in transfected cells
Sequence (Q13422 whole entry): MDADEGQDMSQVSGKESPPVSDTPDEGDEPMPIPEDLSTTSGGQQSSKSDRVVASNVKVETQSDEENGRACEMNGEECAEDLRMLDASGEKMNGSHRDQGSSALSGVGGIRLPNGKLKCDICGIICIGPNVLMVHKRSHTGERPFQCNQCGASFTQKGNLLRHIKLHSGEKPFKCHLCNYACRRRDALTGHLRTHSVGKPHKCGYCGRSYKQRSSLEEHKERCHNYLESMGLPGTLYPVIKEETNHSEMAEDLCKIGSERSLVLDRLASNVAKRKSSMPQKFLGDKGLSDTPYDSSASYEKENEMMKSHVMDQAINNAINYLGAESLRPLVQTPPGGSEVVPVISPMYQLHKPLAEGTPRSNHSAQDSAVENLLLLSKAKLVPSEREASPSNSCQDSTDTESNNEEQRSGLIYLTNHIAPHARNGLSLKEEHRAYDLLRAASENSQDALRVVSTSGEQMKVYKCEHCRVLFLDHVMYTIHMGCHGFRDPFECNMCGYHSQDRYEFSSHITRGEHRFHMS
Sequence (Q96SW2 whole entry): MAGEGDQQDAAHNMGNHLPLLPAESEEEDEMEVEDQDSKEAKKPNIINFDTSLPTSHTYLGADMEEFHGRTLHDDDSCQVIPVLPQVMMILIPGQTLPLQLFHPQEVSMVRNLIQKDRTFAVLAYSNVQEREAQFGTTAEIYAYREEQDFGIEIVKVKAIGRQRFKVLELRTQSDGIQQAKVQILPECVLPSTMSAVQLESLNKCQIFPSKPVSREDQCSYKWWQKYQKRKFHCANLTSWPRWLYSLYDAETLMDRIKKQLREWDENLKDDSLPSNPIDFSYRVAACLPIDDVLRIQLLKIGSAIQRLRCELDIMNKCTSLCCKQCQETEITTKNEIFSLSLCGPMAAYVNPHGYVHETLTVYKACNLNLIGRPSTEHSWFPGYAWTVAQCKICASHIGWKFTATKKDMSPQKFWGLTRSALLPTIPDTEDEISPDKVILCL
Sequence (Q16531 whole entry partner): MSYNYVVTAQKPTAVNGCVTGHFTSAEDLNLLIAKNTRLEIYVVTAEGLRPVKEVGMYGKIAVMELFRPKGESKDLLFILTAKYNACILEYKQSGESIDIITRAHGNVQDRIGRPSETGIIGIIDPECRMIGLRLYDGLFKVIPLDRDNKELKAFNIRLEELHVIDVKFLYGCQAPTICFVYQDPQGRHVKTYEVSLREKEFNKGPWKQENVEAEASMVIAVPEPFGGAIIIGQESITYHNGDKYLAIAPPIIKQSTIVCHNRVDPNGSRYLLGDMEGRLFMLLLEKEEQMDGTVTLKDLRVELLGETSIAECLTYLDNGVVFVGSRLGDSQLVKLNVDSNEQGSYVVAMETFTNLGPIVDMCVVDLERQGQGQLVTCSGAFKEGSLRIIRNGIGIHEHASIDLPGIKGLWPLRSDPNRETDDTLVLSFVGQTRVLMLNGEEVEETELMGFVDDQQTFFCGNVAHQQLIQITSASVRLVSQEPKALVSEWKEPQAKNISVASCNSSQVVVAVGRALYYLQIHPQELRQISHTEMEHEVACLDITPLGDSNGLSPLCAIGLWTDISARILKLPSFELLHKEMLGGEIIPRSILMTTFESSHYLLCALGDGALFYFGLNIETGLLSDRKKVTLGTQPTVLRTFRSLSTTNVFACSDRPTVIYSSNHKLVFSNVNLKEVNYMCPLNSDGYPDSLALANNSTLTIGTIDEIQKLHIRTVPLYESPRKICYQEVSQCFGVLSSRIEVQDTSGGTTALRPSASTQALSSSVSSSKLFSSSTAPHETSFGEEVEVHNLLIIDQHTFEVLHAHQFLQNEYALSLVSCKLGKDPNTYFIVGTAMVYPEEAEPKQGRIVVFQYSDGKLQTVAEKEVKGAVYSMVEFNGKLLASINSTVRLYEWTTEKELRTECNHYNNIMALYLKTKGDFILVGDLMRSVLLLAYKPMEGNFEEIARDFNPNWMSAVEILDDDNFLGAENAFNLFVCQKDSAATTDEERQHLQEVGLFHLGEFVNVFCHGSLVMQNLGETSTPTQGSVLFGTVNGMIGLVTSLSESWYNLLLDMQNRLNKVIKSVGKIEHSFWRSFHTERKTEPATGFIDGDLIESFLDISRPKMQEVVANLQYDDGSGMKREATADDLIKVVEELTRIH
Assay: HEK293 HiBiT in vitro degradation of IKZF1
Assay type: cell-based
Details: HEK293, HEK293 HiBiT; maximum degradation at the highest concentration tested
readoutLabel: Dmax (%)
# number only, unit % dropped from output

molecule="O=C1CCC(N2Cc3cc(C[C@H]4CCCC[C@@H]4NCC4CC(F)(F)C4)ccc3C2=O)C(=O)N1 (some centres unmarked)" unitslabel=% reportedmeasurement=25
molecule="O=C1CCC(N2Cc3cc(C[C@H]4CCCC[C@@H]4NC4CCC5(CC4)CC5(F)F)ccc3C2=O)C(=O)N1 (single isomer, unassigned)" unitslabel=% reportedmeasurement=44
molecule="N#CCC1CCC(N[C@H]2CCCC[C@@H]2Cc2ccc3c(c2)CN(C2CCC(=O)NC2=O)C3=O)CC1 (single isomer, unassigned)" unitslabel=% reportedmeasurement=40
molecule="O=C1CCC(N2Cc3c(ccc(C[C@H]4OCCC[C@@H]4NC4CCC(C(F)F)CC4)c3F)C2=O)C(=O)N1 (single isomer, unassigned)" unitslabel=% reportedmeasurement=26
molecule="CC(C)CCN[C@H]1CCCC[C@@H]1Cc1ccc2c(c1)CN(C1CCC(=O)NC1=O)C2=O (some centres unmarked)" unitslabel=% reportedmeasurement=25

Quick check: Dmax on IKZF1 (Homo sapiens, UniProt Q13422+Q96SW2), item CC(CC(F)(F)F)N[C@H]1CCCC[C@@H]1Cc1ccc2c(c1)CN(C1CCC(=O)NC1=O)C2=O (single isomer, unassigned) ?
30

Field entry: O=C1CCC(N2Cc3cc(C[C@H]4CCCC[C@@H]4NC4CCCCCC4)ccc3C2=O)C(=O)N1 (some centres unmarked)
23

Field entry: CC(CF)N[C@H]1CCCC[C@@H]1Cc1ccc2c(c1)CN(C1CCC(=O)NC1=O)C2=O (some centres unmarked)
72

Field entry: CCN[C@H]1CCCC[C@@H]1Cc1ccc2c(c1)CN(C1CCC(=O)NC1=O)C2=O (some centres unmarked)
31

Field entry: O=C1CCC(N2Cc3cc(C[C@H]4CCCC[C@@H]4N4CC5(CN(Cc6ccccc6Cl)C5)C4)ccc3C2=O)C(=O)N1 (some centres unmarked)
29

Field entry: O=C1CCC(N2Cc3cc(C[C@H]4CCCC[C@@H]4NC4CCS(=O)(=O)CC4)ccc3C2=O)C(=O)N1 (some centres unmarked)
47
